- System: Escherichia coli TOP10
- protocol summary: shrunken log2 fold change of peptide-encoding DNA abundance (4.5 h post-induction vs induction); higher = less antimicrobial activity (less host growth inhibition)
- experimental parameters: time post-induction: 4.5 h; library: site-saturation at positions 5, 18, 19, 20
Think of 0.1 as a floor: if shrunken log2 fold change stands on it or above, it is T; beneath it, F.

(Q) State whether the measured shrunken log2 fold change reaches 0.1, counting equality as reaching it, for RRIRRRPPRLPRPRPRPDGEPRP
(A) F

(Q) I'd appreciate it if you could say whether RRIRGRPPRLPRPRPRPRVMPRP has shrunken log2 fold change at least equal to 0.1.
(A) T

(Q) Is shrunken log2 fold change for RRIRNRPPRLPRPRPRPIYPPRP at or above 0.1?
(A) F

(Q) Check this sequence for shrunken log2 fold change at or above 0.1: RRIRPRPPRLPRPRPRPHRHPRP
(A) F

(Q) Dear colleague, could you confirm whether RRIRMRPPRLPRPRPRPHKRPRP has shrunken log2 fold change at or above 0.1?
(A) T

(Q) Form field: shrunken log2 fold change at least 0.1? Entry: RRIRPRPPRLPRPRPRPRWSPRP
(A) T

(Q) Quick check: does RRIRTRPPRLPRPRPRPEKFPRP have shrunken log2 fold change greater than or equal to 0.1?
(A) F

(Q) Dear colleague, could you confirm whether RRIRIRPPRLPRPRPRPIIEPRP has shrunken log2 fold change at or above 0.1?
(A) F

(Q) Determine whether measured shrunken log2 fold change meets or exceeds 0.1 for RRIRQRPPRLPRPRPRPDMNPRP
(A) F

(Q) Determine whether measured shrunken log2 fold change meets or exceeds 0.1 for RRIRMRPPRLPRPRPRPQLKPRP
(A) T

(Q) Is the recorded value of shrunken log2 fold change equal to or greater than 0.1 for this sequence? RRIRERPPRLPRPRPRPKASPRP
(A) F

(Q) Is shrunken log2 fold change at least 0.1? Consider RRIRLRPPRLPRPRPRPFWKPRP
(A) T

(Q) Check the entry RRIRTRPPRLPRPRPRPPPTPRP : does shrunken log2 fold change equal or exceed 0.1?
(A) T

(Q) In plain terms: is recorded shrunken log2 fold change at least 0.1 for RRIRGRPPRLPRPRPRPALDPRP ?
(A) T

(Q) State whether the measured shrunken log2 fold change reaches 0.1, counting equality as reaching it, for RRIRDRPPRLPRPRPRPPPTPRP
(A) T

(Q) Does RRIRQRPPRLPRPRPRPAQMPRP have a reported shrunken log2 fold change of at least 0.1?
(A) F

(Q) Kindly determine if shrunken log2 fold change recorded for RRIRARPPRLPRPRPRPRSIPRP is above or exactly 0.1.
(A) F

(Q) Decide: is the reported value of shrunken log2 fold change for RRIRLRPPRLPRPRPRPRLDPRP equal to or greater than 0.1?
(A) T

(Q) Given RRIRDRPPRLPRPRPRPLCFPRP , state whether its shrunken log2 fold change is at least 0.1.
(A) F

(Q) Is shrunken log2 fold change for RRIRSRPPRLPRPRPRPSQHPRP at or above 0.1?
(A) F

(Q) Is it the case that RRIRSRPPRLPRPRPRPVSNPRP has shrunken log2 fold change reaching or exceeding 0.1?
(A) F

(Q) Record RRIRTRPPRLPRPRPRPDKPPRP ; criterion: shrunken log2 fold change no lower than 0.1. Met?
(A) F

(Q) Check the entry RRIRWRPPRLPRPRPRPHVVPRP : does shrunken log2 fold change equal or exceed 0.1?
(A) F

(Q) Could you verify whether the entry RRIRMRPPRLPRPRPRPGEPPRP shows shrunken log2 fold change of no less than 0.1?
(A) T

(Q) // inclusive: shrunken log2 fold change at least 0.1? input: RRIRKRPPRLPRPRPRPESDPRP
(A) T

(Q) Is the recorded value of shrunken log2 fold change equal to or greater than 0.1 for this sequence? RRIRRRPPRLPRPRPRPIDPPRP
(A) F

(Q) Hi team, for RRIRYRPPRLPRPRPRPDNHPRP , is the recorded shrunken log2 fold change at or above 0.1?
(A) F

(Q) # bool: shrunken log2 fold change of RRIRMRPPRLPRPRPRPYHMPRP >= 0.1
(A) F

(Q) Is the recorded value of shrunken log2 fold change equal to or greater than 0.1 for this sequence? RRIRARPPRLPRPRPRPTKMPRP
(A) T

(Q) Is it the case that RRIRDRPPRLPRPRPRPLHYPRP has shrunken log2 fold change reaching or exceeding 0.1?
(A) F

(Q) Quick check, shrunken log2 fold change >= 0.1? RRIRKRPPRLPRPRPRPPYVPRP
(A) F

(Q) Given RRIRVRPPRLPRPRPRPKSTPRP , state whether its shrunken log2 fold change is at least 0.1.
(A) F

###

- Tested on: Escherichia coli TOP10
- protocol summary: shrunken log2 fold change of peptide-encoding DNA abundance (4.5 h post-induction vs induction); higher = less antimicrobial activity (less host growth inhibition)
- experimental parameters: time post-induction: 4.5 h; library: site-saturation at positions 5, 18, 19, 20
// map shrunken log2 fold change onto a label; ranges lower (below -0.04), middle (-0.04 to below 0.1), upper (0.1 or more)

(Q) Any idea which band RRIRQRPPRLPRPRPRPRSSPRP is in?
(A) middle

(Q) Lab note: sort RRIRNRPPRLPRPRPRPAFCPRP into the matching shrunken log2 fold change band.
(A) middle

(Q) Textbook exercise: identify the category of the sequence given here, RRIRTRPPRLPRPRPRPARVPRP , according to its measured value.
(A) upper

(Q) Dear colleague, I would appreciate it if you could identify the bin for RRIRARPPRLPRPRPRPAEAPRP and reply at your convenience.
(A) upper

(Q) Hello team, could you let me know which band the following sequence falls into: RRIRERPPRLPRPRPRPKTIPRP
(A) lower

(Q) GET /class?item= RRIRNRPPRLPRPRPRPVWQPRP
(A) upper

(Q) State the class of the sequence shown: RRIRFRPPRLPRPRPRPQCIPRP
(A) lower

(Q) Class? Entry: RRIRHRPPRLPRPRPRPNCEPRP
(A) middle

(Q) Sort RRIRQRPPRLPRPRPRPYNKPRP into one of the categories.
(A) lower

(Q) Entry RRIRARPPRLPRPRPRPMNMPRP belongs to which category?
(A) lower

(Q) Sort RRIRNRPPRLPRPRPRPAHEPRP into one of the categories.
(A) lower

(Q) Would you mind sorting RRIRNRPPRLPRPRPRPDTMPRP into the appropriate category?
(A) lower

(Q) GET /class?item= RRIRWRPPRLPRPRPRPLELPRP
(A) upper

(Q) Could you place RRIRTRPPRLPRPRPRPGYFPRP in its proper category? Many thanks.
(A) lower

(Q) Category of RRIRERPPRLPRPRPRPMGKPRP , please.
(A) middle

(Q) Band for RRIRHRPPRLPRPRPRPPDDPRP ?
(A) upper

(Q) Which class holds RRIRHRPPRLPRPRPRPPPWPRP ?
(A) upper

(Q) Given RRIRQRPPRLPRPRPRPKLIPRP , name the class its shrunken log2 fold change places it in.
(A) lower

(Q) Could you tell me which band RRIRNRPPRLPRPRPRPHNCPRP belongs to?
(A) middle

(Q) Looking at RRIRYRPPRLPRPRPRPGTGPRP , which class would you pick?
(A) upper

(Q) Bin this entry: RRIRDRPPRLPRPRPRPPLCPRP
(A) upper

(Q) Form field 'band' for RRIRGRPPRLPRPRPRPKRNPRP
(A) upper

(Q) In plain terms, what class is RRIRGRPPRLPRPRPRPVDPPRP ?
(A) upper

(Q) Could you tell me which band RRIRYRPPRLPRPRPRPLKMPRP belongs to?
(A) lower

(Q) Band for the recorded shrunken log2 fold change of RRIRQRPPRLPRPRPRPWGFPRP ?
(A) middle

(Q) Class (by measured shrunken log2 fold change) for RRIRARPPRLPRPRPRPDGWPRP
(A) upper

(Q) Dear colleague, I would appreciate it if you could identify the bin for RRIRARPPRLPRPRPRPPMPPRP and reply at your convenience.
(A) upper

(Q) # classify by shrunken log2 fold change band: RRIRGRPPRLPRPRPRPRGIPRP
(A) upper

(Q) Bin? RRIRIRPPRLPRPRPRPYQKPRP
(A) lower

(Q) Which band does RRIRSRPPRLPRPRPRPIFGPRP fall in?
(A) middle

(Q) Which class holds RRIRPRPPRLPRPRPRPKDMPRP ?
(A) middle

(Q) Which class does RRIRDRPPRLPRPRPRPIKKPRP fall in?
(A) middle

###

- System: Escherichia coli TOP10;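 note: peptides expressed intracellularly from a pBAD plasmid library in pooled LB shake-flask culture, induced with 0.3% L-arabinose, DNA abundance read by NGS, three biological replicates, DESeq2 with apeglm shrinkage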
- protocol summary: shrunken log2 fold change of peptide-encoding DNA abundance (4.5 h post-induction vs induction); higher = less antimicrobial activity (less host growth inhibition)
- experimental parameters: time post-induction: 4.5 h; library: site-saturation at positions 5, 18, 19, 20
Rule: shrunken log2 fold change under 0.2 gives FALSE, otherwise TRUE.

(Q) Could you please find out whether RRIRDRPPRLPRPRPRPVLRPRP has shrunken log2 fold change that meets 0.2 or exceeds it?
(A) FALSE

(Q) I'd appreciate it if you could say whether RRIRCRPPRLPRPRPRPGSPPRP has shrunken log2 fold change at least equal to 0.2.
(A) FALSE

(Q) Textbook exercise: given the entry RRIRLRPPRLPRPRPRPISHPRP , state whether its shrunken log2 fold change is greater than or equal to 0.2.
(A) FALSE

(Q) Please indicate if the recorded shrunken log2 fold change for RRIRMRPPRLPRPRPRPRKDPRP meets or exceeds 0.2.
(A) TRUE

(Q) # check: shrunken log2 fold change of RRIRSRPPRLPRPRPRPYGTPRP is greater than or equal to 0.2
(A) FALSE

(Q) Given the entry RRIRKRPPRLPRPRPRPKRWPRP , answer whether its shrunken log2 fold change meets or surpasses 0.2.
(A) TRUE

(Q) API: above_or_equal(metric=shrunken log2 fold change, cutoff=0.2) for item RRIRQRPPRLPRPRPRPHMQPRP
(A) FALSE

(Q) Item RRIRYRPPRLPRPRPRPGYFPRP with shrunken log2 fold change of 0.2 or above?
(A) FALSE

(Q) Is it the case that RRIRCRPPRLPRPRPRPWYYPRP has shrunken log2 fold change reaching or exceeding 0.2?
(A) FALSE

(Q) Would you say RRIRNRPPRLPRPRPRPYSLPRP shows shrunken log2 fold change at minimum 0.2?
(A) FALSE

(Q) Is reported shrunken log2 fold change greater than or equal to 0.2 here: RRIRKRPPRLPRPRPRPMHPPRP
(A) FALSE

(Q) Please indicate if the recorded shrunken log2 fold change for RRIRARPPRLPRPRPRPPLRPRP meets or exceeds 0.2.
(A) TRUE

(Q) Answer whether shrunken log2 fold change of RRIRSRPPRLPRPRPRPCAQPRP is greater than or equal to 0.2.
(A) FALSE

(Q) Threshold query (shrunken log2 fold change >= 0.2) on RRIRKRPPRLPRPRPRPPVHPRP
(A) TRUE

(Q) Reported shrunken log2 fold change at or above 0.2? RRIRCRPPRLPRPRPRPRFPPRP
(A) FALSE

The reported measurements were obtained from the supplement of paper PMC9112550.
